protocol_description: Inhibition of C3b activation relative to compstatin
Positions of bridges follow the written chain, without caps; N, C: chain ends. Residues, ends and D or L forms follow the SMILES beside them.
property_measured: logIC50
The response must contain the number and no unit.

Here are 2 molecules together with their reported answers.
>>> observed_measurement("CC[C@H](C)[C@H](NC(C)=O)C(=O)N[C@H]1CSSC[C@@H](C(=O)N[C@H](C(N)=O)[C@@H](C)O)NC(=O)[C@H](C)NC(=O)[C@H](Cc2cnc[nH]2)NC(=O)[C@H](Cc2cnc[nH]2)NC(=O)CNC(=O)[C@H](Cc2c[nH]c3ccccc23)NC(=O)[C@H](CC(=O)O)NC(=O)[C@H](CC(N)=O)NC(=O)[C@H](C(C)C)NC(=O)[C@H](C(C)C)NC1=O (Ac-ICVVNDWGHHACT-NH2; disulfide 2-12)")
-0.699
>>> observed_measurement("CC[C@H](C)[C@H](NC(C)=O)C(=O)N[C@H]1CSSC[C@@H](C(=O)N[C@H](C(N)=O)[C@@H](C)O)NC(=O)[C@H](CCCNC(=N)N)NC(=O)[C@H](Cc2cnc[nH]2)NC(=O)[C@H](C)NC(=O)CNC(=O)[C@H](Cc2c[nH]c3ccccc23)NC(=O)[C@H](CC(=O)O)NC(=O)[C@H](CCC(N)=O)NC(=O)[C@H](C2Cc3ccccc3C2)NC(=O)[C@H](C(C)C)NC1=O")
1.58

API: the following record is the query input.
Task: Param item = CC[C@H](C)[C@H](NC(C)=O)C(=O)N[C@H]1CSSC[C@@H](C(=O)N[C@H](C(N)=O)[C@@H](C)O)NC(=O)[C@H](CCCNC(=N)N)NC(=O)[C@H](Cc2cnc[nH]2)NC(=O)[C@H](C)NC(=O)CNC(=O)[C@H](Cc2c[nH]c3ccccc23)NC(=O)[C@H](CC(=O)O)NC(=O)[C@H](CCC(N)=O)NC(=O)[C@H](CC2CCCCC2)NC(=O)[C@H](C(C)C)NC1=O ; retrieve measured logIC50.
Output: 0.056

Origin of values: ChEMBL document CHEMBL1140602
